Task for the reader: assign each of the following compounds its reported ΔIsc.
experimental target: CFTR ΔF508 (Homo sapiens, UniProt P13569, DEL508-508)
Construct: host or cells: primary bronchial epithelial cells from CF patients homozygous for ΔF508, pre-treated with VX809
Sequence (P13569 with tags, fused parts or gaps DEL508-508): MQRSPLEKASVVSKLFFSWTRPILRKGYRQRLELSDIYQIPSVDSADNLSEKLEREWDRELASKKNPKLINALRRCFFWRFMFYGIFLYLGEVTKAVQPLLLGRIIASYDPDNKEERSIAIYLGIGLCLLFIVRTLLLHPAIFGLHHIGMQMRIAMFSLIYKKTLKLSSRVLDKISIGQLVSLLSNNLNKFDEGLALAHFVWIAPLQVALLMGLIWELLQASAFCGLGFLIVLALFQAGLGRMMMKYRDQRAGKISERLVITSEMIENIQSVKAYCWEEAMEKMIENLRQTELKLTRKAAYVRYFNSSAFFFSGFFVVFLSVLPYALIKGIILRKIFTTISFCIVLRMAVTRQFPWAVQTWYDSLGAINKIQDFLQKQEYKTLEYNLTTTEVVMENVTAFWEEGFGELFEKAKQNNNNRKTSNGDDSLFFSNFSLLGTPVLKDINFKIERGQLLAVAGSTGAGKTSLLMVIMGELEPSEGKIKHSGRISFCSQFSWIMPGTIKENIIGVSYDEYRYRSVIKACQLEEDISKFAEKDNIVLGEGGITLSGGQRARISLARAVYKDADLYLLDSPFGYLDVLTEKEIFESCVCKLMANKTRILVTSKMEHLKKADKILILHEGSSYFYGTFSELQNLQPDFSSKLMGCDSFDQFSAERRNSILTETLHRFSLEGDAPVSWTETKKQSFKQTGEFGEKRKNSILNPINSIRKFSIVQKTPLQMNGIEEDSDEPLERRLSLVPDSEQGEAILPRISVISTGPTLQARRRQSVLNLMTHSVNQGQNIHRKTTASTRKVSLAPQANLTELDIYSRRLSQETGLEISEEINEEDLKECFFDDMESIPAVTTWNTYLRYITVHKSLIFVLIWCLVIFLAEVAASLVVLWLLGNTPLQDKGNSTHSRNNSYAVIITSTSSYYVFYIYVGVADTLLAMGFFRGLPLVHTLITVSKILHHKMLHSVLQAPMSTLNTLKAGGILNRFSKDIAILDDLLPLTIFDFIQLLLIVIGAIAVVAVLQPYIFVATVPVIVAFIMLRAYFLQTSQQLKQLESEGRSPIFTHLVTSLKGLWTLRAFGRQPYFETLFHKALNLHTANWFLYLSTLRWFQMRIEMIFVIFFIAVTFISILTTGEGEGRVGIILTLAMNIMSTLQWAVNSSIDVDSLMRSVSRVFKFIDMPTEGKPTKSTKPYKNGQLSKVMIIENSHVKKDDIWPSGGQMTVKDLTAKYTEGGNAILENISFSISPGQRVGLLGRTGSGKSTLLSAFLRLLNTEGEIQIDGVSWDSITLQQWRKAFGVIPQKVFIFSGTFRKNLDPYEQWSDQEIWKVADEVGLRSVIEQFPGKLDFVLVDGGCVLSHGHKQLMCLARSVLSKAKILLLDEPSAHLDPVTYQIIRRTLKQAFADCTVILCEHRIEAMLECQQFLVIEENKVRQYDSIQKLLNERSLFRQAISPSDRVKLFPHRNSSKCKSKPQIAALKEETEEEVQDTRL
experiment summary: TECC assay, primary bronchial epithelial cells from CF patients homozygous for CFTR ΔF508
Type: cell-based
stated conditions: TECC assay, compound at 50 nM (Table XVI)
Field: value (include unit after the number)

Give the reported value of ΔIsc for this record: NC(=O)c1c(NC(=O)c2ccccc2Cl)sc2c1CCCC2 [B, reference compound]
0.1807 μA/cm^2

Give the reported value of ΔIsc for this record: NC(=O)c1c(NC(=O)c2cc[nH]n2)sc2c1CCOC2 [E, reference compound]
0.1663 μA/cm^2

Give the reported value of ΔIsc for this record: CC1(C)Cc2c(sc(NC(=O)c3ccn[nH]3)c2C(N)=O)C(C)(C)O1
4.5996 μA/cm^2

Give the reported value of ΔIsc for this record: CN1CCc2c(sc(NC(=O)c3ccccc3O)c2C(N)=O)C1 [A, reference compound]
−0.3807 μA/cm^2
